B1: LINE1-mini (parent)
chain: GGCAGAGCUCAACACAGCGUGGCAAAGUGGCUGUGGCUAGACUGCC

variants of: B1; experiment: self-cleavage, relative activity (ratio to wild type); higher = more cleavage; in vitro, sequencing; the parent is a self-cleaving ribozyme
Listed variants paired with reported self-cleavage
Form rule: numeric answer, no unit written next to it.

C13A G29U    0.2
G1U U28G    0.2

Query block: Give a short answer stating reported self-cleavage for C3U A39G .
Result block: 0.2

These data points were gathered from the RNAGym collection of RNA variant scans (doi:10.7554/elife.90254).
